# experiment_notes: Toxicity LD50 in rat
# setup_conditions: in vivo, iv
Some compounds, each annotated with its measured LD50.
metric_name: LD50

[[record]]
compound = "Cn1ncc2c(NC3=NCCN3)cccc21 [Sgd 230/75, reference compound]"
assay_value = "90 mg/kg"

[[record]]
compound = "Cn1cc2c(NC3=NCCN3)cccc2n1"
assay_value = "69 mg/kg"


----------
# experiment_notes: Toxicity LD50 in rat
# setup_conditions: in vivo, po
Below: a set of entries, each annotated with reported LD50.
metric_name: LD50 (mg/kg)

[[record]]
molecule = "Cn1ncc2c(NC3=NCCN3)cccc21 [Sgd 230/75, reference compound]"
assay_value = 1200

[[record]]
molecule = "Cn1cc2c(NC3=NCCN3)cccc2n1"
assay_value = 3220

